The values you see were collected from patent US20230340152A1.

Target: T1, Human CD73 ECD (human, UniProt P21589 27-549)
T1 construct: Biotinylated in some assays; also called human CD73 extracellular domain; huCD73
T1 sequence: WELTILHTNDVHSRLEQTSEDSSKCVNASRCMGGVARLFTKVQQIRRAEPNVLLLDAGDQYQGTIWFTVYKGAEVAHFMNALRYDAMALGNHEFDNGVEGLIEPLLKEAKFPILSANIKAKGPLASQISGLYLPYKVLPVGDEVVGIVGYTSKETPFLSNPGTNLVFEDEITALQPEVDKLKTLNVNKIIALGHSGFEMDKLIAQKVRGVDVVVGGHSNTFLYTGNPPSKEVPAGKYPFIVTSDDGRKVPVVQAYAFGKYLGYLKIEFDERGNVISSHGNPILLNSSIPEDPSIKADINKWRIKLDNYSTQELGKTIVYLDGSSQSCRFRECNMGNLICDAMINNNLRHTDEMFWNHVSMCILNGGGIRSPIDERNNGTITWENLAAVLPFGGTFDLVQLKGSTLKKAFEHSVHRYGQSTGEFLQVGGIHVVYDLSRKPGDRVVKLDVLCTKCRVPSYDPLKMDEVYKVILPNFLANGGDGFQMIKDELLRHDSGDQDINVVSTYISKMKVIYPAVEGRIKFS
Assay: binding assay, format not stated
Each entry below carries its reported 1/EC50.
Answer in nM⁻¹, number only, no unit symbol.

These recorded examples may help you get a feel for the data.
CD730021 (antibody, V domains shown, IgG1-TM format; also called CD730021 antibody) VH: QVQLQESGPGLVRPSETLSLTCTVSGGSISSSSYYWAWVRQSPGKGLEWIGNIYYRGSTYYNPSLKSRVTMSVDMSKHQFSLKLSSLNAADTAVYYCASLYSGTYVFDYWGRGTLVTVSS VL: QSVLTQPPSASGTPGQRVTISCSGSRPNIGGNTVNWYQQLPGAAPKLLIYSNSQRPSGVPDRFSGSKYGTSASLAISGLQSDDEADYYCGTWDDSLNGPVFGRGTKLTVL: 0.00085
CD730042 (antibody, V domains shown, IgG1-TM format; also called CD730042 antibody) VH: GVQLVQSGGGLVQPGGSLRLSCAASGFTFSSYGMHWVRQAPGKGLEWVAVISYDGSIKYYADSVKGRFTISRDDSKNALYLQMNSLRAEDTAVYYCSTLSGSYGYFDYWGRGTLVTVSS VL: QSVLTQPASVSGSPGQSITISCAGTSSDVGGYNYVSWYQQHPGKAPKLMIYEGSKRPSGVSNRFSGSKSGNTASLTISGLQAEDEADYYCSSYTTRSTRVFGGGTKLTVL: 0.0017

Incoming: Read the entry CD730008 (antibody, IgG1, V domains shown, IgG1-TM format; also called CD730008 antibody) VH: EVQLLETGGGLVQPGGSLRLSCAASGFTFSSYAMSWVRQAPGKGLEWVSAISGSGGSTYYADSVKGRFTISRDNSKNTLYLQMNSLRAEDTAVYYCARGNYGNLDHWGKGTLVTVSS VL: QSVLTQPPSVSVSPGQTASITCSGDKVGDKYASWYQQKPGQSPVLVIYQDRKRPSGIPERFSGSNSGNTATLTISGTQPMDEADYYCQAWDSSHWVFGGGTKLTVL and write its reported 1/EC50.
Outgoing: 0.0011

Incoming: Read the entry CD730047 (antibody, V domains shown, IgG1-TM format; also called CD730047 antibody) VH: EVQLVQSGGGVVQPGRSLRLSCAASGFTFSSYGMHWVRQAPGKGLEWVAVISYDGSIKYYADSVKGRFAISRDNAKNTLYLQMNSLRREDTAMYYCASGLTGVAGALGVWGRGTLVTVSS VL: QSVLTQPPSASGAPGQRVTISCSGSSSNIGSNTVNWYQRLPGAAPQLLIYNNDQRPSGIPDRFSGSKSGTSGSLVISGLQSEDEADYYCAAWDDSLSGNVFGTGTKVTVL and write its reported 1/EC50.
Outgoing: 0
